molecular target: KRAS G12D (Homo sapiens, UniProt P01116, G12D); test: GDP-GTP exchange assay (bodipy-GDP/GppNHp, SOS1), KRAS G12D; settings: bodipy-loaded KRAS G12D 2.5 nM, 4 hours pre-incubation with inhibitor, 2 hours after GppNHp/SOS1; read-out: G12D_exchange IC50
Sequence (P01116 1-188 isoform P01116-2 G12D): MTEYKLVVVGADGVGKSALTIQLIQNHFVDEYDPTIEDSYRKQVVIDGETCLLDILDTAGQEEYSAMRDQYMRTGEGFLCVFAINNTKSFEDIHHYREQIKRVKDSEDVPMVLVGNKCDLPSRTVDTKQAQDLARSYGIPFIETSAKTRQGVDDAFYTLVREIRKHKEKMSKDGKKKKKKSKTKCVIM
pIC50: −log10 of the molar value.
reported-endpoint: pIC50

# count of solved cases: 4
CCc1nc2c(-c3ccc(=O)n(CC)c3)nc3c(F)c(-c4cc(O)cc5ccccc45)c(CCC#N)cc3c2n1C1C2CNC1C2 (single isomer, unassigned)	≥ 7.00
CN(C)C(=O)CCc1nc2c(N3CC(N(C)C)C3)nc3c(OCc4ccccc4)c(-c4cccc5ccc(F)cc45)c(CCC#N)cc3c2n1[C@@H]1[C@@H]2CN[C@H]1C2 (relative stereo)	6.00 to 7.00
CC(=O)N1CC[C@H](n2cnc3c(O[C@@H](C)[C@@H]4CCCN4C)nc4c(F)c(-c5cccc6cccc(C#N)c56)c(Cl)cc4c32)C[C@H]1CC#N (single isomer, unassigned) [Example 39b]	≥ 7.00
C[C@H](Oc1nc2c(F)c(-c3cccc4cccc(C#N)c34)c(Cl)cc2c2c1ncn2[C@H]1CCN(C(=O)c2nc[nH]n2)[C@H](CC#N)C1)[C@@H]1CCCN1C	6.00 to 7.00

// switching to the query compound
Req: Please indicate pIC50 recorded for CN(C)C(=O)CCc1nc2c(N3CC(N(C)C)C3)nc3c(F)c(-c4cc(O)cc5ccccc45)cc(CO)c3c2n1[C@@H]1[C@@H]2CN[C@H]1C2 (relative stereo)
Resp: ≥ 7.00
